target: PARP-1 (Homo sapiens (Human)); conditions: read-out: PARP-1 (DC50); probe compound P1
I'd be grateful if you could share measured DC50 for these entries.

Exercise: Indicate its recorded DC50; the compound in question is CC1c2cccc(C(N)=O)c2C(=O)N1C1CCN(Cc2ncc[nH]2)CC1 (stereo not drawn)
Solution: < 250 nM

Exercise: Give the value of DC50 reported for the following: CC1(C)c2cc(F)cc(C(N)=O)c2C(=O)N1C1CCN(C2CCCCC2)CC1
Solution: 5660 nM

Exercise: Entry CC1c2cccc(C(N)=O)c2C(=O)N1C1CCN(Cc2ccccn2)CC1 (stereo not drawn) needs its DC50 filled in; supply it.
Solution: 350 nM

Exercise: # return recorded DC50 for entry CC1c2cc(F)cc(C(N)=O)c2C(=O)N1C1CCN(C2CCCCC2)CC1 (stereo not drawn)
Solution: 410 nM

Exercise: Identify measured DC50 associated with CC1c2cc(F)cc(C(N)=O)c2C(=O)N1C1CCN(C2CCC(F)(F)CC2)CC1 (stereo not drawn)
Solution: < 250 nM

Exercise: State its DC50: CC1c2cccc(C(N)=O)c2C(=O)N1C1CCN(C2CCCC2)CC1 (stereo not drawn)
Solution: < 250 nM

Exercise: Name the recorded DC50 of the compound listed here: CC1c2cccc(C(N)=O)c2C(=O)N1C1CCN(Cc2ccco2)CC1 (stereo not drawn)
Solution: < 250 nM

Exercise: Give reported DC50 value for CC1c2cccc(C(N)=O)c2C(=O)N1c1ccc(CN2CCCCC2)cc1 (stereo not drawn)
Solution: 1110 nM

Exercise: Give the reported DC50 for this compound. CC1c2cccc(C(N)=O)c2C(=O)N1c1ccc(N2CCOCC2)cc1 (stereo not drawn)
Solution: < 250 nM

Exercise: Tell me measured DC50 for CC1c2cccc(C(N)=O)c2C(=O)N1C1CCN(Cc2cccs2)CC1 (stereo not drawn) please.
Solution: < 250 nM

Exercise: Note down DC50 recorded for CC1c2cccc(C(N)=O)c2C(=O)N1C1CCN(C2CCC(F)(F)CC2)CC1 (stereo not drawn)
Solution: < 250 nM

Exercise: Recall and state the measured DC50 for CC1c2cccc(C(N)=O)c2C(=O)N1C1CCN(CC2CC=CCC2)CC1 (stereo not drawn) .
Solution: < 250 nM

====

experiment: in vivo; settings: male, Balb, Nu/Nu, mouse, po, 10 mg/kg
measurement-type: half-life (h)
Write it as a number; the unit h goes unstated.

Exercise: Query half-life for CC1c2cccc(C(N)=O)c2C(=O)N1C1CCN(C2CCCC2)CC1 (stereo not drawn) [Compound 13]
Solution: 2.9

Exercise: Name the recorded half-life of the item CC1c2cccc(C(N)=O)c2C(=O)N1C1CCN(CC2CCCCC2)CC1 (stereo not drawn) [Compound 21] in your answer.
Solution: 6.6

Exercise: Specify reported half-life for the molecule shown: C[C@H]1c2cccc(C(N)=O)c2C(=O)N1C1CCN(C2CCCCC2)CC1 [Compound 4]
Solution: 2.62

Exercise: Using the record for CC1c2cccc(C(N)=O)c2C(=O)N1C1CCN(C2CCCCC2)CC1 (racemic) [Compound 3] , state its measured half-life.
Solution: 3.04

Exercise: Consider the molecule CC1c2cccc(C(N)=O)c2C(=O)N1C1CCN(C2CCC2)CC1 (stereo not drawn) [Compound 18] . State its measured half-life.
Solution: 1.8

Exercise: For CC1c2cccc(C(N)=O)c2C(=O)N1C1CCN(Cc2ccc[nH]2)CC1 (stereo not drawn) [Compound 19] , write its half-life.
Solution: 0.8

====

Consider the following molecules; for each one, report its clearance.
assay: in vivo; settings: male, Balb, Nu/Nu, mouse, iv, 10 mg/kg
Give the quantity in mL/min/kg, number only.

Exercise: Give the measured clearance for CC1c2cccc(C(N)=O)c2C(=O)N1C1CCN(Cc2ccc[nH]2)CC1 (stereo not drawn) [Compound 19]
Solution: 88

Exercise: Recall and state the measured clearance for CC1c2cccc(C(N)=O)c2C(=O)N1C1CCN(C2CCCCC2)CC1 (racemic) [Compound 3] .
Solution: 32.6

Exercise: Note down clearance recorded for CC1c2cccc(C(N)=O)c2C(=O)N1C1CCN(CC2CCCCC2)CC1 (stereo not drawn) [Compound 21]
Solution: 23

Exercise: Name the recorded clearance of the item CC1c2cccc(C(N)=O)c2C(=O)N1C1CCN(C2CCC2)CC1 (stereo not drawn) [Compound 18] in your answer.
Solution: 47

Exercise: Please give the documented clearance of C[C@H]1c2cccc(C(N)=O)c2C(=O)N1C1CCN(C2CCCCC2)CC1 [Compound 4]
Solution: 53.4

Exercise: Complete the entry with clearance for CC1c2cccc(C(N)=O)c2C(=O)N1C1CCN(C2CCCC2)CC1 (stereo not drawn) [Compound 13]
Solution: 26.7

====

settings: male, Balb, Nu/Nu, mouse, in vivo, 10 mg/kg
Classify: y when C-max (oral) is strictly less than 3 µM; n when C-max (oral) is not.

Exercise: Does this molecule meet the criterion C-max (oral) < 3 µM? CC1c2cccc(C(N)=O)c2C(=O)N1C1CCN(C2CCC2)CC1 (stereo not drawn) [Compound 18]
Solution: n

Exercise: Criterion: C-max (oral) strictly below 3 µM. Is it met by CC1c2cccc(C(N)=O)c2C(=O)N1C1CCN(CC2CCCCC2)CC1 (stereo not drawn) [Compound 21] ?
Solution: y

Exercise: I'd appreciate it if you could check whether CC1c2cccc(C(N)=O)c2C(=O)N1C1CCN(Cc2ccc[nH]2)CC1 (stereo not drawn) [Compound 19] has C-max (oral) smaller than 3 µM.
Solution: y

Exercise: Please let me know if CC1c2cccc(C(N)=O)c2C(=O)N1C1CCN(C2CCCC2)CC1 (stereo not drawn) [Compound 13] shows C-max (oral) below 3 µM.
Solution: n

Exercise: Identify whether the molecule C[C@H]1c2cccc(C(N)=O)c2C(=O)N1C1CCN(C2CCCCC2)CC1 [Compound 4] records C-max (oral) below 3 µM.
Solution: y

Exercise: Dear colleague, could you confirm whether C-max (oral) of CC1c2cccc(C(N)=O)c2C(=O)N1C1CCN(C2CCCCC2)CC1 (racemic) [Compound 3] falls below 3 µM? Thanks.
Solution: y

====

assay: in vivo; details: male, Balb, Nu/Nu, mouse, po, 10 mg/kg
Outcome label depends on AUC(0-t) relative to 7 µM·h: at/above gives Satisfied, below gives Not satisfied.

Exercise: Please check the record CC1c2cccc(C(N)=O)c2C(=O)N1C1CCN(C2CCC2)CC1 (stereo not drawn) and state if its AUC(0-t) is at or above 7 µM·h.
Solution: Satisfied

Exercise: State whether the measured AUC(0-t) reaches 7 µM·h, counting equality as reaching it, for CC1c2cccc(C(N)=O)c2C(=O)N1C1CCN(C2CCCCC2)CC1 (racemic)
Solution: Satisfied

Exercise: Entry C[C@H]1c2cccc(C(N)=O)c2C(=O)N1C1CCN(C2CCCCC2)CC1 : is its AUC(0-t) no less than 7 µM·h?
Solution: Not satisfied

Exercise: hey, is AUC(0-t) for this one >= 7 µM·h? CC1c2cccc(C(N)=O)c2C(=O)N1C1CCN(Cc2ccc[nH]2)CC1 (stereo not drawn)
Solution: Not satisfied

Exercise: Reported AUC(0-t) reaches at least 7 µM·h for CC1c2cccc(C(N)=O)c2C(=O)N1C1CCN(CC2CCCCC2)CC1 (stereo not drawn) ?
Solution: Satisfied

Exercise: Form field: AUC(0-t) at least 7 µM·h? Entry: CC1c2cccc(C(N)=O)c2C(=O)N1C1CCN(C2CCCC2)CC1 (stereo not drawn)
Solution: Satisfied

====

target: PARP-1 (Homo sapiens (Human), UniProt P09874); conditions: read-out: PARP-1 (Kd); probe compound P3
Sequence (P09874 whole entry): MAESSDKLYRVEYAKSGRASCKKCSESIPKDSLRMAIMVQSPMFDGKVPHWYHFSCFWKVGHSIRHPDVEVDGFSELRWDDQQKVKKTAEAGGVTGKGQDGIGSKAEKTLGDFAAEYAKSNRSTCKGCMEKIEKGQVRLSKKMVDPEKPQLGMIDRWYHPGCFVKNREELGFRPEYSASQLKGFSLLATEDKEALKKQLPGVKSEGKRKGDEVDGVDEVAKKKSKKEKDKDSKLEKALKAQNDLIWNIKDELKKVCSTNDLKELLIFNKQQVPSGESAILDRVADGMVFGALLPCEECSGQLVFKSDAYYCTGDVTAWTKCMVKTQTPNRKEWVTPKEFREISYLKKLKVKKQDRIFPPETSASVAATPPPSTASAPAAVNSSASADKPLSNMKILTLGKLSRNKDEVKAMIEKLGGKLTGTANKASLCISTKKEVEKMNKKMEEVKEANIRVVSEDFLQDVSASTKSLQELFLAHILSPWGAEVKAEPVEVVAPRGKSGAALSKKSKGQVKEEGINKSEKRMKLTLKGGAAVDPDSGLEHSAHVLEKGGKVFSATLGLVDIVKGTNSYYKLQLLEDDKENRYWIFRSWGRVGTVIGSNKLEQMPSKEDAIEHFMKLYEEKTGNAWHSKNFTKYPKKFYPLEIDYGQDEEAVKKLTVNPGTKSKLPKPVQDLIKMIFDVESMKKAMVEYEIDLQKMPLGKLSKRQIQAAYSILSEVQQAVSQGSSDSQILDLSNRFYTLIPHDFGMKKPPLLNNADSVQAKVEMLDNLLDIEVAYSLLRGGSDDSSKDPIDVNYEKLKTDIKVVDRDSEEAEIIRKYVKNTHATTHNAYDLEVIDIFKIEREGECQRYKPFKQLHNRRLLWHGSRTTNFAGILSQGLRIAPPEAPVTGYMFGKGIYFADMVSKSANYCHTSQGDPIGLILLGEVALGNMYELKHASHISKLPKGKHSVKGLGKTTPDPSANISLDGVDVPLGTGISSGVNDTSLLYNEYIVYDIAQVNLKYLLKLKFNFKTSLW
measurement-type: Kd (nM)
Give the value in nM but do not write nM after it.

Exercise: Tell us which Kd value is on record for CC1c2cccc(C(N)=O)c2C(=O)N1C1CCN(C2CCC(F)(F)CC2)CC1 (stereo not shown) [Compound 6]
Solution: 30

Exercise: Please give measured Kd of the following entry: CC1c2cccc(C(N)=O)c2C(=O)N1C1CCN(Cc2ccc3[nH]ccc3c2)CC1 (stereo not shown) [Compound 7]
Solution: 30

Exercise: Give the reported value of Kd for this record: CC1c2cccc(C(N)=O)c2C(=O)N1C1CCN(Cc2ccco2)CC1 (stereo not shown) [Compound 15]
Solution: 40

Exercise: Query Kd for CC1(C)c2cc(F)cc(C(N)=O)c2C(=O)N1C1CCN(C2CCCCC2)CC1 [Compound 128]
Solution: 870

Exercise: Answer with the recorded Kd of CC1c2cccc(C(N)=O)c2C(=O)N1C1CCN(Cc2ccccn2)CC1 (stereo not shown) [Compound 9] only.
Solution: 170

Exercise: Give the reported value of Kd for this record: CC1c2cccc(C(N)=O)c2C(=O)N1C1CCN(Cc2cn(C(C)C)c3ccccc23)CC1 (stereo not shown) [Compound 8]
Solution: 250

Exercise: Please give the documented Kd of CC1c2cccc(C(N)=O)c2C(=O)N1c1ccc(N2CCCCC2)cc1 (stereo not shown) [Compound 36]
Solution: 80

Exercise: Please report Kd for the following molecule: CC1c2cccc(C(N)=O)c2C(=O)N1C1CCN(Cc2ncc[nH]2)CC1 (stereo not shown) [Compound 26]
Solution: 70

Exercise: Answer with reported Kd of CC1c2cccc(C(N)=O)c2C(=O)N1C1CCN(C2CCCC2)CC1 (stereo not shown) [Compound 13]
Solution: 50

Exercise: Return reported Kd. Input molecule: CC1c2cccc(C(N)=O)c2C(=O)N1c1ccc(N2CCOCC2)cc1 (stereo not shown) [Compound 35]
Solution: 40

Exercise: Entry CC1c2cc(F)cc(C(N)=O)c2C(=O)N1C1CCN(C2CCCCC2)CC1 (stereo not shown) [Compound 127] needs its Kd filled in; supply it.
Solution: 60

Exercise: Name the recorded Kd of the molecule listed here: CC1c2cccc(C(N)=O)c2C(=O)N1C1CCN(Cc2ccc[nH]2)CC1 (stereo not shown) [Compound 19]
Solution: 20

Exercise: Tell me measured Kd for CC1c2cccc(C(N)=O)c2C(=O)N1C1CCN(CC2CC=CCC2)CC1 (stereo not shown) [Compound 22] please.
Solution: 40
